This collection of values is drawn from patent US8906911B2.

Consider the following molecules and their measured IC50 readings.
tgt: human CCR2B (Homo sapiens (Human), UniProt P41597)
Sequence (P41597 other isoform, or with tags, fused parts or gaps): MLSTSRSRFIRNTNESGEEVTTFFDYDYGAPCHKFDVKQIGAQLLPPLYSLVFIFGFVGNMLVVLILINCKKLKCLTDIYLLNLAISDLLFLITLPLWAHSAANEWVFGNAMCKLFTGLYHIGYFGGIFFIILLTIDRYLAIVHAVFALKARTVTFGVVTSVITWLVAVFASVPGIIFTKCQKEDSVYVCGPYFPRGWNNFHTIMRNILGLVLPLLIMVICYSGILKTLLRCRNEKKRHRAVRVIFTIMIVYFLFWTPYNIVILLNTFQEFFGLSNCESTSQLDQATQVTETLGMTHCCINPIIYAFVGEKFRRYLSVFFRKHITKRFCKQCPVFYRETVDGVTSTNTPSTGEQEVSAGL
measurement_protocol: Inhibition of native agonist (human MCP-1)-induced intracellular calcium release, calcium flux assay in CHO cells expressing human CCR2B and Gα16
Format: cell-based
particulars: read-out: hCCR2B IC50
Give the number; µM is assumed, so skip it.

Completed entries (count: 2):
>>> reported_result("CO[C@@H]1COCC[C@@H]1N(C)[C@@H]1C[C@H]2CCC[C@@]2(C(=O)N2C[C@@H]3C[C@H]2CN3c2cc(C(F)(F)F)ccc2C(F)(F)F)C1")
0.0839
>>> reported_result("CC[C@@H]1COCC[C@@H]1N[C@@H]1C[C@H]2CCC[C@@]2(C(=O)N2C[C@@H]3C[C@H]2CN3c2cc(C(F)(F)F)ccn2)C1")
0.028

QUERY: Tell me the measured IC50 of `CO[C@@H]1COCC[C@@H]1N[C@@H]1C[C@H]2CCC[C@@]2(C(=O)N2C[C@@H]3C[C@H]2CN3C(=O)OC(C)(C)C)C1` , please.
RESULT: 0.328

====

tgt: human CCR2B (Homo sapiens (Human))
measurement_protocol: Inhibition of native agonist (human MCP-1)-induced intracellular calcium release, calcium flux assay in CHO cells expressing human CCR2B and Gα16
Assay type: cell-based
particulars: read-out: hCCR2B Kb
measured_parameter: Kb
Note: a bare number is incomplete; add the unit.

QUERY: Tell me the measured Kb of CO[C@@H]1COCC[C@@H]1N[C@@H]1C[C@H]2CCC[C@@]2(C(=O)N2C[C@@H]3C[C@H]2CN3c2cc(C(F)(F)F)ccc2C(F)(F)F)C1 [Example 50] , please.
RESULT: 6 nM

QUERY: Tell me the measured Kb of CO[C@@H]1COCC[C@@H]1N[C@@H]1C[C@H]2CCC[C@@]2(C(=O)N2C[C@@H]3C[C@H]2CN3c2cc(F)cc(C(F)(F)F)c2)C1 [Example 25] , please.
RESULT: 23 nM

QUERY: Tell me the measured Kb of CO[C@@H]1COCC[C@@H]1N[C@@H]1C[C@H]2CCC[C@@]2(C(=O)N2C[C@@H]3C[C@H]2CN3c2cc(C(F)(F)F)ccn2)C1 [Example 2] , please.
RESULT: 19 nM
